- EXPERIMENTAL_SYSTEM: rat cerebellum ETB receptors (Rattus norvegicus, UniProt P21451)
- Sequence (P21451 27-442): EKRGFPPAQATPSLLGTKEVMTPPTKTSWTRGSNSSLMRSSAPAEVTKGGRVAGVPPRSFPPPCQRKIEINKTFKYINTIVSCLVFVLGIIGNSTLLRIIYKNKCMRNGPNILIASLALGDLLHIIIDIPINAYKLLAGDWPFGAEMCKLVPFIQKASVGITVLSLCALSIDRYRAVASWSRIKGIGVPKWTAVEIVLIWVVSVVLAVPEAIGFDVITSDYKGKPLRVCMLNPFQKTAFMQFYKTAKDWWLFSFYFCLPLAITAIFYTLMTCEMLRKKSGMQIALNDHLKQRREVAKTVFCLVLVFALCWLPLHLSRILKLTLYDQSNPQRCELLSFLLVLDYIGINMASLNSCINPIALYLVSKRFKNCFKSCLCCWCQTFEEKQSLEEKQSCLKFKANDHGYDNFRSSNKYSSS
QUANTITY_KIND: IC50 (µM)
Number in µM, nothing else.

Q: Missing value: IC50, rat cerebellum ETB receptors (Rattus norvegicus, UniProt P21451), entry Cc1ccccc1[C@H](Oc1cc(OCc2ccc3c(c2)OCO3)ccc1C#N)C(=O)O . Fill in?
A: 35
